PROTOCOL DETAILS: in vitro
CONDITIONS USED: human, hepatocytes, % Remaining
Excerpt: Briefly, cryopreserved human primary hepatocytes were thawed and cultured as described above.
ASSAY READOUT: remaining at 3 h, 10 µM (%)
Numbers only, in %.

// remaining at 3 h, 10 µM value for CCCCNC(=O)NS(=O)(=O)c1ccc(C)cc1 [Tolbutamide] : 98.8

====

System: P. falciparum (NF54-HGL) stage V gametocytes fed to A. stephensi
PROTOCOL DETAILS: Transmission-blocking mosquito feeding assay (oocyst luminescence)
Type: cell-based, Plasmodium falciparum
CONDITIONS USED: gametocytes treated 24 h before feeding to A. stephensi; read-out: IC50 oocyst formation
Experimental: The transmission-blocking activity of compounds was determined as described previously. Briefly, NF54-HGL parasites were set up at 1% parasitemia in a semi-automated shaker system at 5% hematocrit. […] Eight days after the feed, luminescence was quantified to determine oocyst intensity.
ASSAY READOUT: pIC50
Answers are plain numbers, as −log10 of the molar value.

Per the records, this compound ( `C[C@@H](CNC(=O)[C@H](O)C(C)(C)CO)NC(=O)c1cc(F)c(F)cc1F` ) has pIC50 equal to 7.42

====

Tested on: P. falciparum Pf3D7^0087/N9
PROTOCOL DETAILS: Single dose in vivo efficacy in humanized NSG mice
Parameters: species or system Plasmodium falciparum
CONDITIONS USED: day 7 post infection, per mouse
ASSAY READOUT: Parasitemia

Some molecules with known Parasitemia results, for comparison:
1) C[C@@H](CNC(=O)[C@H](O)C(C)(C)CO)NC(=O)c1cccc(F)c1 (stereo in doubt): 0
2) C[C@@H](CNC(=O)[C@H](O)C(C)(C)CO)NC(=O)c1cc(F)c(F)cc1F: 0
3) C[C@@H](CNC(=O)[C@H](O)C(C)(C)CO)NC(=O)c1cc(C#N)ccc1F: 0.02
4) CCN(CC)CCCC(C)Nc1ccnc2cc(Cl)ccc12 (stereo not drawn) [CQ, chloroquine, reference compound]: 0
5) CC(C)(CO)[C@@H](O)C(=O)NCCNC(=O)c1cc(C#N)ccc1F: 0.17

Next item in the queue.
Summary for this molecule, C[C@@H](CNC(=O)[C@H](O)C(C)(C)CO)NC(=O)c1cccc(C#N)c1 (stereo in doubt) : Parasitemia is 0

====

PROTOCOL DETAILS: Blood concentration and PK in infected NSG mice after single oral dose
Format: in vivo, mouse
CONDITIONS USED: 50 mg/kg p.o.
ASSAY READOUT: Cmax (ng/mL)
One number for each entry, in ng/mL.

As a guide, the following entries are already answered.
1. CC(C)(CO)[C@@H](O)C(=O)NCCNC(=O)c1cc(C#N)ccc1F [MMV976394]: 5810
2. C[C@@H](CNC(=O)[C@H](O)C(C)(C)CO)NC(=O)c1cccc(C#N)c1 (stereo in doubt) [MMV884962]: 3920
3. C[C@@H](CNC(=O)[C@H](O)C(C)(C)CO)NC(=O)c1cccc(F)c1 (stereo in doubt) [MMV1542001]: 5150

Required: Cmax, one value per compound below.
1. CC(CNC(=O)C(O)C(C)(C)CO)NC(=O)CCc1ccccc1F (stereo in doubt) [MMV689258]
2. C[C@@H](CNC(=O)[C@H](O)C(C)(C)CO)NC(=O)c1cc(F)c(F)cc1F [MMV693183]

*A*
1. 3780
2. 12900

Data provenance is paper PMC9021288.
